# protein stability index annotations
B1: LOXL2 (parent)
chain: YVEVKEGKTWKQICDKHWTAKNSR

# Variants of: B1
# Test protocol: protein stability index of a GFP-peptide fusion (GPS, HEK-293T) (PSI 1-6); higher = more stable;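 also: lentivirally expressed fusions sorted by FACS into six bins by GFP to DsRed ratio, PSI derived from sequencing read proportions per bin multiplied by bin number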
# Conditions used: c terminus: a fixed tail appended

- Mutation: "W10A"
  protein stability index: 2.42
- Mutation: "E6M"
  protein stability index: 2.88
- Mutation: "Q12T"
  protein stability index: 2.43
- Mutation: "K8M"
  protein stability index: 1.91
- Mutation: "T9E"
  protein stability index: 1.61
- Mutation: "C14A"
  protein stability index: 1.77
- Mutation: "T9H"
  protein stability index: 1.86
- Mutation: "V4M"
  protein stability index: 1.82
- Mutation: "K16V"
  protein stability index: 2.46
- Mutation: "Q12N"
  protein stability index: 2.61
- Mutation: "K21H"
  protein stability index: 1.85
- Mutation: "W10N"
  protein stability index: 2.5
- Mutation: "K16I"
  protein stability index: 2.32
- Mutation: "V4E"
  protein stability index: 1.42
- Mutation: "R24D"
  protein stability index: 1.91
- Mutation: "A20I"
  protein stability index: 1.99
- Mutation: "K21R"
  protein stability index: 3.06
- Mutation: "V2I"
  protein stability index: 2.66
- Mutation: "T19L"
  protein stability index: 1.39
- Mutation: "G7R"
  protein stability index: 1.62
- Mutation: "C14T"
  protein stability index: 2.52
- Mutation: "W18C"
  protein stability index: 2.54
- Mutation: "Y1C"
  protein stability index: 3.36
- Mutation: "W18K"
  protein stability index: 2.11
- Mutation: "D15W"
  protein stability index: 2.6
- Mutation: "N22A"
  protein stability index: 3.24
- Mutation: "G7V"
  protein stability index: 2.8
- Mutation: "R24L"
  protein stability index: 2.46
- Mutation: "N22P"
  protein stability index: 1.89
- Mutation: "G7C"
  protein stability index: 2.29
- Mutation: "A20C"
  protein stability index: 2.46
- Mutation: "S23R"
  protein stability index: 2.09
- Mutation: "K8C"
  protein stability index: 2.17
- Mutation: "K5P"
  protein stability index: 1.7
- Mutation: "K5V"
  protein stability index: 2.63
- Mutation: "T9I"
  protein stability index: 2.48
- Mutation: "H17L"
  protein stability index: 2.81
- Mutation: "K21S"
  protein stability index: 1.99
- Mutation: "W10C"
  protein stability index: 2.17
- Mutation: "D15I"
  protein stability index: 1.83
- Mutation: "K21I"
  protein stability index: 1.68
- Mutation: "V2D"
  protein stability index: 3.58
- Mutation: "A20S"
  protein stability index: 2.73
- Mutation: "W18Q"
  protein stability index: 1.84
- Mutation: "A20T"
  protein stability index: 2.03
- Mutation: "R24K"
  protein stability index: 2.76
- Mutation: "V2P"
  protein stability index: 2.12
- Mutation: "S23G"
  protein stability index: 1.83
- Mutation: "K16A"
  protein stability index: 2.08
- Mutation: "G7A"
  protein stability index: 1.61
- Mutation: "K16D"
  protein stability index: 3.38
- Mutation: "K11H"
  protein stability index: 2.45
- Mutation: "G7F"
  protein stability index: 1.65
- Mutation: "G7E"
  protein stability index: 1.7
- Mutation: "N22Q"
  protein stability index: 1.82
- Mutation: "C14H"
  protein stability index: 4.51
- Mutation: "Y1N"
  protein stability index: 3.93
- Mutation: "C14E"
  protein stability index: 2.5
- Mutation: "C14Y"
  protein stability index: 1.93
- Mutation: "K16G"
  protein stability index: 3.14
- Mutation: "R24Q"
  protein stability index: 2.33
- Mutation: "E3N"
  protein stability index: 2.29
- Mutation: "K5E"
  protein stability index: 1.7
- Mutation: "E6Q"
  protein stability index: 4.18
- Mutation: "V4K"
  protein stability index: 2.03
- Mutation: "K21W"
  protein stability index: 1.96
- Mutation: "T9V"
  protein stability index: 1.94
- Mutation: "I13R"
  protein stability index: 2.59
- Mutation: "K21T"
  protein stability index: 2.5
- Mutation: "D15F"
  protein stability index: 2.12
- Mutation: "K8I"
  protein stability index: 2.67
- Mutation: "K8V"
  protein stability index: 2.07
- Mutation: "T9D"
  protein stability index: 1.6
- Mutation: "C14V"
  protein stability index: 1.93
- Mutation: "H17D"
  protein stability index: 1.84
- Mutation: "D15T"
  protein stability index: 2.26
- Mutation: "S23F"
  protein stability index: 1.19
- Mutation: "Q12W"
  protein stability index: 2.42
- Mutation: "R24E"
  protein stability index: 2.33
- Mutation: "W18L"
  protein stability index: 2.19
- Mutation: "K21Y"
  protein stability index: 2.14
- Mutation: "E3L"
  protein stability index: 2.58

Source listed as the supplement of paper PMC10567573.
